# assayed.target: recombinant human angiotensin-II receptor subtype 2 (hAT2R) (Homo sapiens (Human), UniProt P50052)
# Sequence (P50052 whole entry): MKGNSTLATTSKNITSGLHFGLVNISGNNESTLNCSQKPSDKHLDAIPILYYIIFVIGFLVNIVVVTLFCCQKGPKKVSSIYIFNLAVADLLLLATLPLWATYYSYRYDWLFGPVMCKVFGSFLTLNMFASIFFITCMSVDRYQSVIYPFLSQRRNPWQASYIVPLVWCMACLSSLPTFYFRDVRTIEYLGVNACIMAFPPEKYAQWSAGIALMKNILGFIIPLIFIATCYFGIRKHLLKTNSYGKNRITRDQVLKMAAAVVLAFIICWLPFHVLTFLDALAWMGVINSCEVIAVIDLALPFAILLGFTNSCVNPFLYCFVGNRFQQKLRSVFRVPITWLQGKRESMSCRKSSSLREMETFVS
# run.description: Competitive radioligand binding assay (SPA), hAT2R HEK293 membranes
# assay.setup: [125I]-Tyr4-Angiotensin-II, read-out: AT2R Ki
test.readout: pKi
Friendly reminder that pKi comes from taking -log10 of the concentration in mol/L.

CC(C(=O)N1CCC(CC(=O)N(c2ccccc2)C2CCCC(F)(F)C2)(C(=O)O)CC1)c1ccccc1F (racemic) : 8.98
CC(C)c1ccc(C(=O)N2CCC(CC(=O)N(c3ccccc3)C3CCCC(F)(F)C3)(C(=O)O)CC2)c(F)c1 (racemic) : 8.53
O=C(N1CCC(CC(=O)N(c2ccccc2)c2ccccc2)(C(=O)O)CC1)N1CCc2ccccc21 : 8.27
O=C(N1CCC(CC(=O)N(c2ccccc2)c2cccc(F)c2)(C(=O)O)CC1)N1CCc2ccccc21 : 8.11
O=C(N1CCC(CC(=O)N(c2ccccc2F)c2ccccc2F)(C(=O)O)CC1)N1CCc2ccccc21 : 8.37
COc1ccc(N(C)C(=O)N2CCC(CC(=O)N(c3ccccc3)C3CCCCC3)(C(=O)O)CC2)cc1 : 8.59

Next compound, please.
Inquiry: Field request: pKi | item: "COc1cccc(N(C(=O)CC2(C(=O)O)CCN(C(=O)N(C)c3ccc(F)cc3)CC2)c2ccccc2)c1"
Reply text: 8.57
